Study Target: Estrogen receptor (Homo sapiens)
Sequence (whole entry): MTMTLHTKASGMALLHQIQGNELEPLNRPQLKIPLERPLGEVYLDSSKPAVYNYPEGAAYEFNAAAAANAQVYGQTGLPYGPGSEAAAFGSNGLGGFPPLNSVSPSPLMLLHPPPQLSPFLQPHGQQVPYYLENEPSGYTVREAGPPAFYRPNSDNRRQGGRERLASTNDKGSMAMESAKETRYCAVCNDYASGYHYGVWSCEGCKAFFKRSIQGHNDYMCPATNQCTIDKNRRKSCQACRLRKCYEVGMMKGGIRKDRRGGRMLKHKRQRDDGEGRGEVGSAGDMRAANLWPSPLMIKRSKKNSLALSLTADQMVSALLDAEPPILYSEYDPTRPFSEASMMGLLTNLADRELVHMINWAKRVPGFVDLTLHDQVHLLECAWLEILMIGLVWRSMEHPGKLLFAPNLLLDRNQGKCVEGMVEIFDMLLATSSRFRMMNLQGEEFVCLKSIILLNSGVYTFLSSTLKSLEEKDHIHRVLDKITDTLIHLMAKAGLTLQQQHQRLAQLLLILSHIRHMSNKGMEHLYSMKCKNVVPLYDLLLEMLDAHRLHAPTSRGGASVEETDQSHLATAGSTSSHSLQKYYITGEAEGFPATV
Assay Method Text: Agonist activity at ERalpha expressed in HEK293 cells at 10 uM after 24 hrs by luciferase reporter gene assay relative to 3,17-beta-estradiol
Type: functional, cell-based
This section presents molecules with their documented Activity values.
Please state the number and follow it with the unit.

Study these solved cases before continuing.
Oc1ccc(CCCC2=NOC(Cc3ccc(O)cc3)C2)cc1 (stereo in doubt; 26a) | 14.4%
Oc1ccc(CCC2=NOC(Cc3ccc(F)cc3)C2)cc1 (single isomer, unassigned) | 5.7%
O=C(CCc1ccccc1O)CC(O)CCc1ccccc1 (racemic) | 4%
Oc1ccc(CC2CC(CCCc3ccc(O)c(O)c3)=NO2)cc1 (single isomer, unassigned; 28a) | 1.7%
CC1(c2ccccc2)CC(CCc2ccccc2O)=NO1 (single isomer, unassigned; 37a) | 11.8%

Lookup result for Oc1ccc(CCCC2=NOC(Cc3ccccc3)C2)cc1 (stereo in doubt; 24a) ; measured Activity: 154%

Lookup result for CC1(c2ccccc2)CC(CCc2ccccc2)=NO1 (single isomer, unassigned; 36b) ; measured Activity: 10.9%

Lookup result for O=C(CCc1ccccc1)CC(O)Cc1ccc(O)cc1 (racemic) ; measured Activity: 51.4%

Lookup result for CC1(c2ccccc2)CC(CCCc2ccccc2)=NO1 (racemic) ; measured Activity: 69.5%

###

Study Target: Estrogen receptor beta (Homo sapiens)
Assay Method Text: Agonist activity at ERbeta expressed in HEK293 cells at 10 uM after 24 hrs by luciferase reporter gene assay relative to 3,17-beta-estradiol
Assay type: functional, cell-based
Reported Endpoint: Activity (%)
All answers are understood in %, so give the number only.

Oc1ccc(CC2CC(CCCc3ccccc3)=NO2)cc1 (single isomer, unassigned; 25b) | 17

Lookup result for O=C(CCCc1ccc(O)cc1)CC(O)c1ccccc1 (single isomer, unassigned; 50b) ; measured Activity: 155

Lookup result for CC1(c2ccccc2)CC(CCCc2ccccc2)=NO1 (racemic) ; measured Activity: 15.5

Lookup result for CC(O)(CC(=O)CCCc1ccc(O)cc1)c1ccccc1 (racemic) ; measured Activity: 103

Lookup result for Oc1ccc(CCCC2=NOC(Cc3ccc(O)cc3)C2)cc1 (stereo in doubt; 26a) ; measured Activity: -0.9

Lookup result for Oc1ccc(CCC2=NOC(CCc3ccccc3)C2)cc1 (single isomer, unassigned) ; measured Activity: 15.4

Lookup result for CC1(c2ccccc2)CC(CCc2ccc(O)cc2)=NO1 (single isomer, unassigned; 39a) ; measured Activity: 18

Lookup result for Oc1ccc(CCCC2=NOC(Cc3ccccc3)C2)cc1 (single isomer, unassigned) ; measured Activity: 19.8

Lookup result for c1ccc(CCC2=NOC(CCc3ccccc3)C2)cc1 (centres undefined) ; measured Activity: -0.4

###

Study Target: Estrogen receptor (Homo sapiens)
Assay Method Text: Agonist activity at ERalpha expressed in HEK293 cells at 10 uM after 24 hrs by luciferase reporter gene assay relative to 3,17-beta-estradiol
Format: functional, cell-based
This section presents compounds with their documented Activity values.
All answers are understood in %, so give the number only.

CC1(c2ccccc2)CC(CCCc2ccc(O)cc2)=NO1 (single isomer, unassigned; 46b) | 13.6

Lookup result for Oc1ccc(CC2CC(CCCc3ccccc3)=NO2)cc1 (single isomer, unassigned; 25a) ; measured Activity: 67.1

Lookup result for O=C(CCc1ccc(O)cc1)CC(O)CCc1ccccc1 (racemic) ; measured Activity: 46.8

Lookup result for Oc1ccc(CCC2=NOC(CCc3ccccc3)C2)cc1 (stereo in doubt; 18b) ; measured Activity: 15.8

Lookup result for Oc1ccccc1CCC1=NOC(CCc2ccccc2)C1 (single isomer, unassigned) ; measured Activity: 4.5

###

Study Target: Estrogen receptor (Homo sapiens) (UniProt P03372)
Assay Method Text: Induction of ERalpha-mediated pS2 gene expression in human MCF7 cells at 10 nM after 24 hrs by real-time quantitative PCR analysis
Assay type: cell-based
Active and inactive are the calls of the source. The rule behind the calls is not given here.
I would appreciate it if you answered using one of these outcomes: active, inactive

Solved cases below.
Oc1ccc(CCCC2=NOC(c3ccccc3)C2)cc1 (single isomer, unassigned; 45a) | inactive
O=C(CCCc1ccc(O)cc1)CC(O)c1ccccc1 (single isomer, unassigned; 50a) | inactive
Oc1ccc(CCCC2=NOC(c3ccccc3)C2)cc1 (single isomer, unassigned; 45b) | inactive

Below: the item to evaluate.
Recorded call for O=C(CCCc1ccc(O)cc1)CC(O)c1ccccc1 (single isomer, unassigned; 50b) ?
active

###

Study Target: Estrogen receptor (Homo sapiens) (UniProt P03372)
Sequence (whole entry): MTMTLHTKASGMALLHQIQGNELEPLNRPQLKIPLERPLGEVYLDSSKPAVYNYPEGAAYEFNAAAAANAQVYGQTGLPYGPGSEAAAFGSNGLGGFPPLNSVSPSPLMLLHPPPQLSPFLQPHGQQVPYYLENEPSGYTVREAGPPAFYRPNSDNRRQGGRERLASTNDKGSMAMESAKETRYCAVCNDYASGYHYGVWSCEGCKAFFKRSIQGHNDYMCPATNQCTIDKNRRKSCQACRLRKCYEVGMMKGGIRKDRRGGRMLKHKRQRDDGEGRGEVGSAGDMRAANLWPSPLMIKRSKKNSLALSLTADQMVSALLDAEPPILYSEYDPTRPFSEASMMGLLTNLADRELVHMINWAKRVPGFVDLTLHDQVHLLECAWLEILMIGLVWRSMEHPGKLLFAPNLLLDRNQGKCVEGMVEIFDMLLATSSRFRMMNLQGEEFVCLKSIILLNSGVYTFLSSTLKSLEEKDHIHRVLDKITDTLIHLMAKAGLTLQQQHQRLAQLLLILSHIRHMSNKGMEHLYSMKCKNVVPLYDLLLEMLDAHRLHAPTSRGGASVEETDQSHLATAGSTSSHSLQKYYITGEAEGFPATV
Assay Method Text: Agonist activity at ERalpha expressed in HEK293 cells at 10 uM after 24 hrs by luciferase reporter gene assay relative to 3,17-beta-estradiol
Assay type: functional, cell-based
So basically: is Activity under 40%? Then rule met. Not under? Then rule not met.

Solved cases below.
Oc1ccc(CCC2=NOC(CCc3ccccc3)C2)cc1 (single isomer, unassigned) | rule not met
O=C(CCc1ccccc1O)CC(O)Cc1ccc(F)cc1 (racemic) | rule met
O=C(CCCc1ccccc1)CC(O)c1ccccc1 (single isomer, unassigned) | rule not met
CC(O)(CC(=O)CCc1ccc(O)cc1)c1ccccc1 (racemic) | rule not met
CC(O)(CC(=O)CCc1ccccc1)c1ccccc1 (racemic) | rule not met
CC1(c2ccccc2)CC(CCc2cccc(O)c2)=NO1 (single isomer, unassigned; 38b) | rule met

Consider Oc1ccc(CCCC2=NOC(c3ccccc3)C2)cc1 (single isomer, unassigned; 45b) . Does its Activity lie strictly below 40%?
rule not met

###

Species: Homo sapiens
Assay Method Text: Selectivity ratio of relative binding affinity for human ERalpha to relative binding affinity for human ERbeta
So basically: is Ratio under 5? Then Yes. Not under? Then No.

Consider c1ccc(CCCC2=NOC(c3ccccc3)C2)cc1 (stereo in doubt; 43b) . Does its Ratio lie strictly below 5?
Yes

Consider CC1(c2ccccc2)CC(CCCc2ccc(O)cc2)=NO1 (single isomer, unassigned; 46a) . Does its Ratio lie strictly below 5?
No

Consider O=C(CCc1ccc(O)cc1)CC(O)Cc1ccccc1 (racemic) . Does its Ratio lie strictly below 5?
Yes

Consider O=C(CCc1cccc(O)c1)CC(O)CCc1ccccc1 (racemic) . Does its Ratio lie strictly below 5?
No

Consider Oc1ccc(CCCC2=NOC(c3ccccc3)C2)cc1 (single isomer, unassigned; 45b) . Does its Ratio lie strictly below 5?
No

###

Study Target: UniProtKB P03372
Assay Method Text: Agonist activity at ERalpha expressed in HEK293 cells at 10 uM after 24 hrs by luciferase reporter gene assay relative to 3,17-beta-estradiol
Type: functional, cell-based
This section presents compounds with their documented Activity values.
All answers are understood in %, so give the number only.

Study these solved cases before continuing.
O=C(CCCc1ccc(O)cc1)CC(O)Cc1ccc(O)cc1 (stereo in doubt; form 2) | 15.4
O=C(CCCc1ccc(O)c(O)c1)CC(O)Cc1ccccc1 (racemic) | -0.5
Oc1ccc(CCCC2=NOC(c3cccc(O)c3)C2)cc1 (single isomer, unassigned) | 32.9

Note to self: Activity of CC1(c2ccccc2)CC(CCc2ccc(O)cc2)=NO1 (single isomer, unassigned; 39a) with UniProtKB P03372 was 39.7

Note to self: Activity of Oc1ccccc1CCC1=NOC(Cc2ccccc2)C1 (single isomer, unassigned) with UniProtKB P03372 was 39.7

Note to self: Activity of Oc1ccc(CCCC2=NOC(Cc3ccc(O)cc3)C2)cc1 (single isomer, unassigned) with UniProtKB P03372 was 13.6

Note to self: Activity of Oc1ccc(CCCC2=NOC(Cc3ccccc3)C2)cc1 (single isomer, unassigned) with UniProtKB P03372 was 75.1

Note to self: Activity of Oc1ccc(CCC2=NOC(Cc3ccccc3)C2)cc1 (single isomer, unassigned; 3b) with UniProtKB P03372 was 24.3

Note to self: Activity of O=C(CCCc1ccc(O)cc1)CC(O)Cc1ccccc1 (racemic) with UniProtKB P03372 was 105

Note to self: Activity of c1ccc(CCCC2=NOC(Cc3ccccc3)C2)cc1 (centres undefined) with UniProtKB P03372 was 28.1

Note to self: Activity of O=C(CCc1ccccc1O)CC(O)Cc1ccccc1 (racemic) with UniProtKB P03372 was 45.2

Note to self: Activity of Oc1ccccc1CCC1=NOC(CCc2ccccc2)C1 (stereo in doubt; 16b) with UniProtKB P03372 was 21.8

Note to self: Activity of O=C(CCCc1ccc(O)cc1)CC(O)c1ccccc1 (single isomer, unassigned; 50b) with UniProtKB P03372 was 140

Note to self: Activity of CC(O)(CC(=O)CCCc1ccc(O)cc1)c1ccccc1 (racemic) with UniProtKB P03372 was 90.9
